src = patent US10385022B2

target: UniProt:Q8TDU6; test: functional cAMP assay in CHO-dhfr(minus) cells expressing human GPBAR1 receptors; conditions: CHO-dhfr(minus) cells expressing human GPBAR1, 30 min at 30° C.
Sequence (Q8TDU6 whole entry): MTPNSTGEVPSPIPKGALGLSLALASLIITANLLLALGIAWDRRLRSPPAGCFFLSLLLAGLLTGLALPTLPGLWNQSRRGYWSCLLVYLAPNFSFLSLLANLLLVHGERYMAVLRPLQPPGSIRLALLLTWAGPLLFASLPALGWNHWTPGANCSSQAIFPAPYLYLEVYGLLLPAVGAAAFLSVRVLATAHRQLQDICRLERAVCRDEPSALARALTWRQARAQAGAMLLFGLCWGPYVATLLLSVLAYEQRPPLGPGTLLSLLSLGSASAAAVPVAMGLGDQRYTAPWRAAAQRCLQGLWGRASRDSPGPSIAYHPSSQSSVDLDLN
So I've got a bunch of compounds here, and I need their EC50 values.
Respond numerically; units are nM and should not be typed.

Q. Field request: EC50 | item: CC1CCCCN1c1ccncc1N(C)C(=O)c1cc(C(F)(F)F)cc(C(F)(F)F)c1 (stereo not drawn)
A. 143

Q. Field request: EC50 | item: `COc1cc(F)ccc1-c1ccncc1N(C)C(=O)c1cc(SCCCC(=O)O)cc(C(F)(F)F)c1`
A. 508

Q. Field request: EC50 | item: `COC(=O)COc1cc(F)ccc1-c1ccncc1N(C)C(=O)c1cc(C(F)(F)F)cc(C(F)(F)F)c1`
A. 629
